assay: Experimental saturated solubility of ENO in excipients; assay type: physicochemical; conditions: C90, 40 °C, thermodynamic from solid

| compound | solubility at 72 h |
| --- | --- |
| CCn1cc(C(=O)O)c(=O)c2cc(F)c(N3CCNCC3)nc21 [ENO, Enoxacin] | 2800 µg/mL |

====

test: Experimental saturated solubility of ENO in excipients; assay type: physicochemical; details: Tween 80, 40 °C, thermodynamic from solid

| compoundSmiles | solubility at 72 h / µg/mL |
| --- | --- |
| CCn1cc(C(=O)O)c(=O)c2cc(F)c(N3CCNCC3)nc21 | 1500 |

====

assay: Experimental saturated solubility of ENO in excipients; type: physicochemical; settings: Miglyol 812N, 40 °C, oil or lipid, thermodynamic from solid
parameter: solubility at 72 h (µg/mL)

| compound | units | reported |
| --- | --- | --- |
| CCn1cc(C(=O)O)c(=O)c2cc(F)c(N3CCNCC3)nc21 [ENO, Enoxacin] | µg/mL | 5400 |
